FYI, the data here is from ChEMBL document CHEMBL5042551.

experimental_system: Heparin
protocol: Binding affinity to heparin (unknown origin) assessed as apparent dissociation constant by SPR assay
Set-up: species or system Homo sapiens
experimental_setup: read-out: Kd(app)
reported_endpoint: Kd (nM)

>>> df
                               test_smiles  experimental_system  readout_unit  data_value
0  Oc1ccccc1CNCCCNCCCCNCCCNCc1cccc2ccccc12              Heparin            nM        1890

(a) Oc1ccccc1CNCCCNCCCCNCCCNCc1c(O)ccc2ccccc12
(b) N=C(N)NCCC[C@H](N)C(=O)NCCCN1CCN(CCCNC(=O)[C@@H](N)CCCNC(=N)N)CC1
(c) Oc1ccccc1CNCCCNCCCCNCCCNCc1ccccc1O
(d) Oc1ccc2ccccc2c1CNCCCNCCCCNCCCNCc1c(O)ccc2ccccc12
(e) COc1ccccc1CNCCCNCCCCNCCCNCc1ccccc1OC
Provide the items ranked by increasing Kd. Hello, could you send the labels back in the order asked? Thank you.
d, b, a, c, e
(d: 797 nM, b: 1530 nM, a: 2620 nM, c: 21500 nM, e: 33700 nM)

(P) Oc1ccccc1CNCCCNCCCCNCCCNCc1ccc2c(c1)Cc1ccccc1-2
(Q) Oc1ccccc1CNCCCNCCCCNCCCNCc1ccc2ccccc2c1O
Of P and Q , whose reported Kd is numerically smaller? Indicate which entry you chose by stating its label.
P
